Where do these numbers come from? They come from patent US20250171495A1.

Target or system Thrombin (Homo sapiens, UniProt P00734); recorded quantity pIC50.
pIC50: −log10 of the molar value. Numbered stars: 1 amine (or outer) side, 2 acyl side, 3 side chain; on linkers, the order of the positions; unused ones are H or OH. Square brackets hold non-standard residues; d marks the D form. Peptide text beside a SMILES is read from it. X1 = N=C(N)NCCC[C@H](N[*:1])C(=O)c1nc2ccc(C(=O)[*:2])cc2s1

• CC(=O)N[C@@H](Cc1cncn1COCc1ccccc1)C(=O)N[C@@H](CCCCNC(=N)N)C(=O)N[C@@H](CCC(C)C)C(=O)N[C@H](CCCNC(=N)N)C(=O)c1nc2ccccc2s1 = 5.31
• N=C(N)NCCC[C@H](NC(=O)[C@H](Cc1ccccc1)NC(=O)[C@H](CCC(N)=O)NC(=O)Cc1ccccc1)C(=O)c1nc2ccccc2s1 = < 4.70
• CC(=O)N[C@H]1Cc2ccc(cc2)OCCCC[C@@H](C(=O)N[C@@H](CCCNC(=N)N)C(=O)c2nc3ccccc3s2)NC(=O)[C@H](Cc2c[nH]c3ccccc23)NC1=O = < 4.70
• CSCC[C@H](NC(C)=O)C(=O)N[C@@H](CCC(N)=O)C(=O)N[C@@H](Cc1ccccc1)C(=O)N[C@@H](CCCNC(=N)N)C(=O)c1nc2ccccc2s1 = < 4.70
• CC(=O)N[C@H]1Cc2ccc(cc2)OCCCC[C@@H](C(=O)N[C@H](CCCNC(=N)N)C(=O)c2nc3ccccc3s2)NC(=O)[C@@H](Cc2c[nH]c3ccccc23)NC1=O [VD4162A] = < 4.70

Incoming: Consider the molecule `CSCC[C@@H]1NC(=O)[C@@H](NC(C)=O)CC(=O)NCCCC[C@@H](C(=O)N[C@@H](CCCNC(=N)N)C(=O)c2nc3ccccc3s2)NC1=O` and give its measured pIC50.
Outgoing: 4.73

Incoming: Consider the molecule `CC(=O)N[C@@H](CO)C(=O)NCc1cccc(CC(=O)N[C@@H](CC(C)C)C(=O)N[C@@H](CCCNC(=N)N)C(=O)c2nc3ccccc3s2)c1` and give its measured pIC50.
Outgoing: 5.03

Incoming: Consider the molecule `N=C(N)NCCC[C@H](NC(=O)[C@H](Cc1ccccc1)NC(=O)OCC1c2ccccc2-c2ccccc21)C(=O)c1nc2ccccc2s1` and give its measured pIC50.
Outgoing: < 4.70

Incoming: Consider the molecule `N=C(N)NCCC[C@H](NC(=O)[C@H](Cc1ccccc1)NC(=O)[C@H](CCC(N)=O)NCc1ccccc1)C(=O)c1nc2ccccc2s1` and give its measured pIC50.
Outgoing: < 4.70

Incoming: Consider the molecule CC(=O)N[C@H]1CCCCn2cc(nn2)C[C@H](C(=O)N[C@H](CCCNC(=N)N)C(=O)c2nc3ccccc3s2)NC(=O)[C@H](CC(C)C)NC1=O [VD4118A] and give its measured pIC50.
Outgoing: < 4.70

Incoming: Consider the molecule CCC(C)[C@H](NC(C)=O)C(=O)N[C@@H](CCC(N)=O)C(=O)N[C@H](C(=O)N[C@@H](CCCNC(=N)N)C(=O)c1nc2ccccc2s1)C(C)O (stereo partly shown) and give its measured pIC50.
Outgoing: < 4.70

Incoming: Consider the molecule CC(=O)N[C@H]1Cc2ccc(cc2)OCCCC[C@@H](C(=O)N[C@@H](CCCNC(=N)N)C(=O)c2nc3ccccc3s2)NC(=O)[C@H](Cc2ccccc2)NC1=O [VD4111B] and give its measured pIC50.
Outgoing: < 4.70

Incoming: Consider the molecule CC(=O)N[C@@H](CO)C(=O)N[C@H](Cc1c[nH]c2ccccc12)C(=O)N[C@@H](CC(C)C)C(=O)N[C@@H](CCCNC(=N)N)C(=O)c1nc2ccc(C(=O)N[C@H](C(N)=O)C(C)C)cc2s1 [JH1114] (Ac-S[dW]L[X1]V-NH2) and give its measured pIC50.
Outgoing: 5.41

Incoming: Consider the molecule `CC(=O)N[C@@H](Cc1c[nH]c2ccccc12)C(=O)N[C@@H](Cc1ccccc1)C(=O)N[C@@H](CCCNC(=N)N)C(=O)c1nc2ccccc2s1` and give its measured pIC50.
Outgoing: < 4.70

Incoming: Consider the molecule `CC(=O)N[C@H](Cc1c[nH]c2ccccc12)C(=O)N[C@@H](Cc1ccccc1)C(=O)N[C@@H](CCCNC(=N)N)C(=O)c1nc2ccccc2s1` and give its measured pIC50.
Outgoing: < 4.70

Incoming: Consider the molecule CCC(C)[C@H](NC(C)=O)C(=O)N[C@@H](CCC(N)=O)C(=O)N[C@@H](CO)C(=O)N[C@@H](CCCNC(=N)N)C(=O)c1nc2ccccc2s1 (stereo partly shown) and give its measured pIC50.
Outgoing: < 4.70

Incoming: Consider the molecule `CN(C)[C@@H](CCC(N)=O)C(=O)N[C@@H](Cc1ccccc1)C(=O)N[C@@H](CCCNC(=N)N)C(=O)c1nc2ccccc2s1` and give its measured pIC50.
Outgoing: < 4.70

Incoming: Consider the molecule `CN(C)[C@@H](CCC(N)=O)C(=O)N[C@@H](Cc1ccccc1)C(=O)N[C@H](CCCNC(=N)N)C(=O)c1nc2ccccc2s1` and give its measured pIC50.
Outgoing: < 4.70

Incoming: Consider the molecule `CC(=O)N[C@H](Cc1c[nH]c2ccccc12)C(=O)N[C@@H](CCCCNC(=N)N)C(=O)N[C@@H](CCC(C)C)C(=O)N[C@@H](CCCNC(=N)N)C(=O)c1nc2ccccc2s1` and give its measured pIC50.
Outgoing: < 4.70

---

target: hepsin (Homo sapiens, UniProt P05981); construct: purchased R&D Systems 4776-SE-010; assay: Fluorogenic kinetic enzyme inhibitor assay, hepsin; assay type: biochemical; conditions: read-out: Hepsin IC50
Sequence (P05981 163-417 limits assumed): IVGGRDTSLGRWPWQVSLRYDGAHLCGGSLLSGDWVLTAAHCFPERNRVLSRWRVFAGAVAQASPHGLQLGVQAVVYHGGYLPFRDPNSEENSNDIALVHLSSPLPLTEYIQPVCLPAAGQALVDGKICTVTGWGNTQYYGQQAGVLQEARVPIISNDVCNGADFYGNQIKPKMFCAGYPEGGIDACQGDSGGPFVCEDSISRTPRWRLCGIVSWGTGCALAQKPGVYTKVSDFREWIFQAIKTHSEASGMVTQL
Sequence (P05981 1-162 partner limits assumed): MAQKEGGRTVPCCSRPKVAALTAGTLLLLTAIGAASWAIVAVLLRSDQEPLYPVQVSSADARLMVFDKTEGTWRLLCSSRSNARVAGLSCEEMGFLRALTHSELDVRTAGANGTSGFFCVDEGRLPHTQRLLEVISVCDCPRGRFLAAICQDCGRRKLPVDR
Below, each entry is listed alongside its reported IC50.
Hi! Could you send only the number? It should be in nM, unit omitted.

Sample answers from the record:
- CC(=O)N[C@@H](Cc1cncn1COCc1ccccc1)C(=O)N[C@@H](CCC(C)C)C(=O)N[C@@H](CCCNC(=N)N)C(=O)c1nc2ccccc2s1: 0.93
- C=CCOC(=O)CC[C@H](NC(=O)[C@@H]1CC2CCCCC2N1C(C)=O)C(=O)N[C@@H](Cc1ccc(F)cc1)C(=O)N[C@@H](CCCNC(=N)N)C(=O)c1nc2ccccc2s1 (stereo partly drawn): 0.308
- CC(=O)N[C@H](Cc1c[nH]c2ccccc12)C(=O)N[C@@H](Cc1ccccc1)C(=O)N[C@@H](CCCNC(=N)N)C(=O)c1nc2ccc(C(=O)O)cc2s1: 2
- N=C(N)NCCC[C@H](NC(=O)[C@H](Cc1ccccc1)NC(=O)[C@H](CCC(N)=O)NCc1ccccc1)C(=O)c1nc2ccccc2s1: 0.2
- N=C(N)NCCC[C@H](NC(=O)[C@H](CC1CCCCC1)NC(=O)OCC1c2ccccc2-c2ccccc21)C(=O)c1nc2ccccc2s1: 2390

Proceeding to the next compound to report its IC50.
Incoming: Consider the compound `CC(=O)N[C@H]1CC(=O)NCCCC[C@@H](C(=O)N[C@@H](CCCNC(=N)N)C(=O)c2nc3ccccc3s2)NC(=O)[C@H](CC(C)C)NC1=O` and give its measured IC50.
Outgoing: 19

---

target: TMPRSS2 (Homo sapiens); assay: Fluorogenic kinetic enzyme inhibitor assay, TMPRSS2; format: biochemical; parameters: purchased Cusabio Technology CSB-YP023924HU; details: read-out: TMPRSS2 IC50
Sequence (O15393 106-492 limits assumed): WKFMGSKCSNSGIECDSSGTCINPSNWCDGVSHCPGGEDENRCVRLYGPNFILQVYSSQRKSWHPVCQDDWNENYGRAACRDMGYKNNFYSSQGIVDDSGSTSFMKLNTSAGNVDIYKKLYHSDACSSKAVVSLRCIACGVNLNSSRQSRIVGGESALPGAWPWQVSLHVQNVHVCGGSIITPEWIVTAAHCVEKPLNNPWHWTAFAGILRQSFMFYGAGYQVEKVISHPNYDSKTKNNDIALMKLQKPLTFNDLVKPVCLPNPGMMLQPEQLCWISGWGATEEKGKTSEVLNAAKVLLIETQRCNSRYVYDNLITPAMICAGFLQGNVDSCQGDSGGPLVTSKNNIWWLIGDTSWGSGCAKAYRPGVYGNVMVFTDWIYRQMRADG
Property: IC50 (nM)
Hi! Could you send only the number? It should be in nM, unit omitted.

- CC(=O)N[C@H]1Cc2ccc(cc2)OC/C=C\CNC(=O)C[C@@H](C(=O)N[C@@H](CCCNC(=N)N)C(=O)c2nc3ccccc3s2)NC(=O)[C@H](CC(C)C)NC1=O: 21.6
- CC(=O)N[C@@H](CC(C)C)C(=O)N[C@@H](CCC(N)=O)C(=O)N[C@@H](Cc1ccccc1)C(=O)N[C@@H](CCCNC(=N)N)C(=O)c1nc2ccccc2s1: 0.031
- CC(=O)N[C@H]1Cc2ccc(cc2)Oc2ccc(cc2)C[C@@H](C(=O)N[C@@H](CCCNC(=N)N)C(=O)c2nc3ccccc3s2)NC(=O)[C@H](CC(C)C)NC1=O [VD5076B]: 1.25
- CCC(C)[C@H](NC(C)=O)C(=O)N[C@@H](CCC(N)=O)C(=O)N[C@H](C(=O)N[C@@H](CCCNC(=N)N)C(=O)c1nc2ccccc2s1)C(C)C (stereo partly shown): 0.031

Incoming: Consider the compound `CC(=O)N[C@@H](Cc1cncn1COCc1ccccc1)C(=O)N[C@@H](CCCCNC(=N)N)C(=O)N[C@@H](CCC(C)C)C(=O)N[C@H](CCCNC(=N)N)C(=O)c1nc2ccccc2s1` and give its measured IC50.
Outgoing: 7.54

Incoming: Consider the compound CCC(C)[C@H](NC(C)=O)C(=O)N[C@@H](CCC(N)=O)C(=O)N[C@H](C(=O)N[C@H](CCCNC(=N)N)C(=O)c1nc2ccccc2s1)C(C)C (stereo partly shown) and give its measured IC50.
Outgoing: 2.89

Incoming: Consider the compound CCC(C)[C@H](NC(C)=O)C(=O)N[C@@H](CCC(=O)O)C(=O)N[C@@H](Cc1ccccc1)C(=O)N[C@H](CCCNC(=N)N)C(=O)c1nc2ccccc2s1 (stereo partly shown) and give its measured IC50.
Outgoing: 0.385
